test system: YAP/TAZ-TEAD transcription; test: Reporter gene assay for measuring the inhibition of YAP/TAZ-TEAD transcription (TEAD-responsive element luciferase reporter in Hek293T cells); format: cell-based; conditions: Hek293T cells transiently transfected with TEAD-responsive element luciferase reporter, 24 hours incubation
measuredAttribute: EC50

Known EC50 results, listed for orientation:
# compound, EC50
records = [
    ("C=CC(=O)NCC1CN(c2ccc(SC(F)(F)F)cc2)c2ccnn2C1 (single isomer, unassigned) [Cpd. No. 020-En1]", "< 1 µM"),
    ("C=CC(=O)NCC1CN(c2ccc(C(F)F)cc2)c2ccnn2C1 (single isomer, unassigned) [Cpd. No. 009-En1]", "1 to 20 µM"),
]

Below are some compounds; for each one, tell me its EC50.
1. C=CC(=O)N1CCC2(C1)CN(c1ccc(C(F)(F)F)cc1)c1ccnn1C2 (single isomer, unassigned) [Cpd. No. 088-En1]
2. CCC(=O)NCC1Cc2nn(Cc3cccc(C(N)=O)c3)cc2N(c2ccc(C(F)(F)F)cc2)C1 (stereo not shown)
3. C=CC(=O)NCC1CN(c2ccc(C(C)C)cc2)c2ccnn2C1 (single isomer, unassigned) [Cpd. No. 013-En1]
4. C=CC(=O)NCC1CN(c2ccc(C(C)C)cc2)c2ccnn2C1 (single isomer, unassigned) [Cpd. No. 013-En2]
5. C=CC(=O)NCC1CN(c2ccc(S(F)(F)(F)(F)F)cc2)c2ccnn2C1 (single isomer, unassigned) [Cpd. No. 023-En2]

1. < 1 µM
2. > 20 µM
3. < 1 µM
4. < 1 µM
5. < 1 µM

----------
tested on: YAP/TAZ-TEAD transcription; assay: Reporter gene assay for measuring the inhibition of YAP/TAZ-TEAD transcription (TEAD-responsive element luciferase reporter in Hek293T cells); type: cell-based; conditions: Homo sapiens, HEK-293T, 24 h, Hek293T cells transiently transfected with TEAD-responsive element luciferase reporter, 24 hours incubation
measuredAttribute: EC50

Known EC50 results, listed for orientation:
# molecule, recordedValue
rows = [
    ("C=CC(=O)NCC1Cc2nn(Cc3cccc(C(N)=O)c3)cc2N(c2ccc(C(F)(F)F)cc2)C1 (stereo not shown) [Cpd. No. 081]", "< 1 µM"),
    ("CS(=O)(=O)NCC1CN(Cc2cccc(C(F)(F)F)c2)c2ccnn2C1 (stereo not shown) [Cpd. No. 054]", "> 20 µM"),
    ("C=CC(=O)NCC1CN(c2cccc(C(F)(F)F)c2)c2ccnn2C1 (stereo not shown) [Cpd. No. 003]", "< 1 µM"),
]

Which EC50 value belongs to C[C@H](NC(=O)NCC1CN(c2ccc(C(F)(F)F)cc2)c2ccnn2C1)c1ccccn1 (stereo partly shown) [Cpd. No. 091] ?
> 20 µM

----------
Record form. Attribute: pEC50. Fill in for each entry.
tested on: YAP/TAZ-TEAD transcription; test: Reporter gene assay for measuring the inhibition of YAP/TAZ-TEAD transcription (TEAD-responsive element luciferase reporter in Hek293T cells); type: cell-based; details: Hek293T cells transiently transfected with TEAD-responsive element luciferase reporter, 24 hours incubation
pEC50: −log10 of the molar value.

Below are some compounds; for each one, tell me its pEC50.
1. CCC(=O)NCC1CN(c2ccc(C(F)(F)F)cc2)c2ccnn2C1 (single isomer, unassigned) [Cpd. No. 028-En1]
2. C=CC(=O)NCC1CN(C(=O)C2CCCCC2)c2ccnn2C1 (single isomer, unassigned) [Cpd. No. 046-En1]
3. C=CC(=O)NCC1CN(c2ccc(SC(F)(F)F)cc2)c2ccnn2C1 (single isomer, unassigned) [Cpd. No. 020-En2]
4. C=CC(=O)NCC1CN(c2ccn(C)c(=O)c2)c2ccnn2C1 (single isomer, unassigned)
5. C=CC(=O)NCC1CN(c2ccc(OC(F)(F)F)cc2)c2cc(C)nn2C1 (single isomer, unassigned) [Cpd. No. 030-En1]

< 4.70
4.70 to 6.00
> 6.00
< 4.70
> 6.00

----------
tested on: YAP/TAZ-TEAD transcription; assay: Reporter gene assay for measuring the inhibition of YAP/TAZ-TEAD transcription (TEAD-responsive element luciferase reporter in Hek293T cells); format: cell-based; settings: Hek293T cells transiently transfected with TEAD-responsive element luciferase reporter, 24 hours incubation
pEC50: −log10 of the molar value.
measuredAttribute: pEC50

Known pEC50 results, listed for orientation:
# compound, pEC50
measured = [
    ("C=CC(=O)NCC1CN(c2ccc(F)cc2)c2ccnn2C1 (single isomer, unassigned) [Cpd. No. 006-En1]", "4.70 to 6.00"),
    ("C=CC(=O)NCC1CN(c2ccc(C(F)(F)F)cc2)c2cc(C(F)(F)F)nn2C1 (single isomer, unassigned) [Cpd. No. 034-En1]", "> 6.00"),
    ("C=CC(=O)NCC1CN(c2ccc(C(F)(F)F)cn2)c2ccnn2C1 (single isomer, unassigned) [Cpd. No. 008-En2]", "> 6.00"),
    ("C=CC(=O)NCC1CN(S(=O)(=O)c2ccc(C(F)(F)F)cc2)c2ccnn2C1 (stereo not shown) [Cpd. No. 045-En1]", "4.70 to 6.00"),
    ("C=CC(=O)NCC1CN(c2ccc(C(F)(F)F)cc2)c2cnc(C(F)(F)F)n2C1 (single isomer, unassigned) [Cpd. No. 094-En1]", "> 6.00"),
]

Below are some compounds; for each one, tell me its pEC50.
1. C=CC(=O)NCC1CN(c2ccc(C(F)(F)F)cc2)c2cc(C3CC3)nn2C1 (single isomer, unassigned) [Cpd. No. 031-En2]
2. C=CC(=O)NCC1CN(c2ccc(-c3ccccc3)cc2)c2ccnn2C1 (single isomer, unassigned) [Cpd. No. 017-En1]

1. > 6.00
2. < 4.70

----------
Record form. Attribute: pEC50. Fill in for each entry.
tested on: YAP/TAZ-TEAD transcription; test: Reporter gene assay for measuring the inhibition of YAP/TAZ-TEAD transcription (TEAD-responsive element luciferase reporter in Hek293T cells); type: cell-based; conditions: Homo sapiens, HEK-293T, 24 h, Hek293T cells transiently transfected with TEAD-responsive element luciferase reporter, 24 hours incubation
pEC50: −log10 of the molar value.

Known pEC50 results, listed for orientation:
# compound, measuredAttribute, recordedValue
rows = [
    ("C=CC(=O)NCC1CN(c2ccc(OC(F)(F)F)cc2)c2ccnn2C1 (centres unmarked) [Cpd. No. 011]", "pEC50", "> 6.00"),
    ("C=CC(=O)NCC1CN(c2ccn(C)c(=O)c2)c2ccnn2C1 (single isomer, unassigned) [Cpd. No. 024-En1]", "pEC50", "< 4.70"),
    ("FC(F)(F)c1ccc(N2CC(C3CC(Br)=NO3)Cn3nccc32)cc1 (single isomer, unassigned) [Cpd. No. 086-Dia1]", "pEC50", "> 6.00"),
    ("C=CC(=O)NCC1CN(c2ccc(OC(F)(F)F)cc2F)c2ccnn2C1 (single isomer, unassigned) [Cpd. No. 019-En1]", "pEC50", "> 6.00"),
]

Alright, here's another compound for you.
Query for YAP/TAZ-TEAD transcription: what pEC50 does the record show for C=CC(=O)NCC1CN(c2ccc(C(F)(F)F)cc2)c2cc(C3CC3)nn2C1 (centres unmarked) [Cpd. No. 031] ?
> 6.00

----------
system: NCI-H2052 mesothelioma cell line; assay: Mesothelioma cell line proliferation assay, NCI-H2052; type: cell-based; settings: Homo sapiens, NCI-H2052, 144 h, NCI-H2052, 6 days with compound, cell viability by ATPlite
measuredAttribute: EC50

Known EC50 results, listed for orientation:
# compound, measuredAttribute, recordedValue
data = [
    ("C=CC(=O)NC1CN(c2ccc(C(F)(F)F)cc2F)c2ccnn2C1 (single isomer, unassigned)", "EC50", "< 1000 nM"),
    ("C=CC(=O)NCC1CN(c2ccc(C(F)(F)F)cn2)c2ccnn2C1 (single isomer, unassigned)", "EC50", "< 1000 nM"),
    ("C=CC(=O)NC1CN(c2ccc(C(F)(F)F)cc2)c2ccnn2C1 (stereo not shown)", "EC50", "< 1000 nM"),
    ("C=CC(=O)NCC1CN(Cc2cccc(C(F)(F)F)c2)c2ccnn2C1 (stereo not shown)", "EC50", "< 1000 nM"),
    ("C=C(F)C(=O)NCC1CN(c2ccc(C(F)(F)F)cc2)c2ccnn2C1 (stereo not shown)", "EC50", "< 1000 nM"),
    ("C=CC(=O)NCC1CN(c2ccc(C(F)(F)F)cc2)c2cc(C)nn2C1 (stereo not shown)", "EC50", "< 1000 nM"),
    ("C=CC(=O)N1CCC2(C1)CN(c1ccc(C(F)(F)F)cc1)c1ccnn1C2 (stereo not shown)", "EC50", "< 1000 nM"),
    ("C=CC(=O)NCC1CNc2c(CC#Cc3ccccc3)cnn2C1 (stereo not shown)", "EC50", "> 10000 nM"),
    ("C=CC(=O)NCC1CN(c2cccc(C(F)(F)F)c2)c2ccnn2C1 (single isomer, unassigned)", "EC50", "> 10000 nM"),
    ("C=CC(=O)NCC1CN(CC2CCCCC2)c2ccnn2C1 (single isomer, unassigned)", "EC50", "> 10000 nM"),
]

Below are some compounds; for each one, tell me its EC50.
1. C=CC(=O)NC1CN(c2ccc(C(F)(F)F)c(F)c2)c2ccnn2C1 (single isomer, unassigned)
2. C=CC(=O)NCC1CN(c2ccc(C(F)(F)F)cc2)c2cc(CC3CC3)nn2C1 (stereo not shown)
3. C#CC(=O)NCC1CN(c2ccc(C(F)(F)F)cc2)c2ccnn2C1 (stereo not shown)
4. C=CC(=O)NCC1CN(c2ccc(C(F)(F)F)cc2)c2c(Br)cnn2C1 (stereo not shown)
5. C=CC(=O)NCC1CN(c2ccc(C(F)(F)F)c(F)c2)c2ccnn2C1 (stereo not shown)
6. C=CC(=O)NCC1CN(c2ccc(OC(F)(F)F)c(F)c2)c2ccnn2C1 (single isomer, unassigned)

1. < 1000 nM
2. < 1000 nM
3. < 1000 nM
4. 1000 to 10000 nM
5. < 1000 nM
6. < 1000 nM
